Listing: IC50 of selected compounds
Target: Human Factor XIIa (Homo sapiens)
Sequence (P00748 373-615 limits assumed): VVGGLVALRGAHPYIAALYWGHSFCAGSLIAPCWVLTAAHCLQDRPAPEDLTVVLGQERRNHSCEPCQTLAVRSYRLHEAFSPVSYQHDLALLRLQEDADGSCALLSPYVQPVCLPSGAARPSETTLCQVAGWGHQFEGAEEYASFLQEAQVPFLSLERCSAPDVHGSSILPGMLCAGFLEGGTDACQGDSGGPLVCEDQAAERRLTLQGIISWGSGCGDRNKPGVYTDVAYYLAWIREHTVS
Sequence (P00748 20-372 partner limits assumed): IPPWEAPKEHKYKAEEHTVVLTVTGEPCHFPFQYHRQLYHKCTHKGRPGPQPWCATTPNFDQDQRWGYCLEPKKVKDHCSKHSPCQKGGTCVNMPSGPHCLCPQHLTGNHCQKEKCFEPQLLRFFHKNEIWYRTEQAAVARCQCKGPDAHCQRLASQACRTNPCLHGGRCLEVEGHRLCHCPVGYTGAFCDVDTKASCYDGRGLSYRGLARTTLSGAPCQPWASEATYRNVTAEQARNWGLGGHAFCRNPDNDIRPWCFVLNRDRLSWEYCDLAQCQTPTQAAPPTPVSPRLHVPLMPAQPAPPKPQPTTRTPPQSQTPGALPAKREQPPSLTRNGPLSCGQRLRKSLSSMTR

COMPOUND	IC50
COc1cccc(CCC(=O)N2CC3(COc4ccn(C)c(=O)c4)CC2(CNc2cccc4c(N)nccc24)C3)c1 [Example 12042]	10 to 100 nM
Cn1ccc(OCC23CN(C(=O)OCc4ccc5ccccc5c4)C(CNc4cccc5c(N)nccc45)(C2)C3)cc1=O [Example 12024]	100 to 300 nM
COc1cc(OCC23COC(CNc4cccc5c(N)nccc45)(C2)C3)cn2ccnc12 [Example 6631]	100 to 300 nM
Cn1c(OCC23CCOC(CNc4cccc5c(N)nccc45)(C2)C3)cccc1=O [Example 10945]	3000 to 10000 nM
CC1(C)OC2(COc3cccc4c(N)nccc34)CC1(COc1ccc3nccn3c1)C2 [Example 7704]	300 to 1000 nM
Nc1nccc2c(NCC34CC(COC5CCc6nccn6C5)(CCO3)C4)cccc12 (stereo not drawn) [Example 10908]	300 to 1000 nM
Nc1nccc2c(NCC34CC(COc5ccc6ncoc6c5)(CCO3)C4)cccc12 [Example 10973]	1000 to 3000 nM
Cn1ccc(OCC23CCOC(CNc4cccc5c(N)nccc45)(C2)C3)cc1=O [Example 10906]	100 to 300 nM
CC(C)c1cc(OCC23CCOC(CNc4cccc5c(N)nccc45)(C2)C3)cc(=O)n1C [Example 10949]	300 to 1000 nM
Cc1cn(C)c(=O)nc1OCC12CCOC(CNc3cccc4c(N)nccc34)(C1)C2 [Example 10962]	1000 to 3000 nM
Nc1nccc2c(NCC34CC(COc5ccc6nc[nH]c6c5)(C3)C4)cccc12 [Example 1105]	3000 to 10000 nM
Cc1cnc2ccc(OCC34COC(CNc5ccccc5CC(F)(F)F)(C3)C4)cn12 [Example 6659]	40000 to 100000 nM
Cn1ccc(OCC23CN(S(=O)(=O)CCc4ccccc4)C(CNc4cccc5c(N)nccc45)(C2)C3)cc1=O [Example 12014]	10 to 100 nM
Nc1nccc2c(NCC34CC(COc5ccc6c(c5)C(=O)NC6)(CO3)C4)cccc12 [Example 6642]	100 to 300 nM
Cn1ccc(OCC23CN(C(=O)c4ccccc4)C(CNc4cccc5c(N)nccc45)(C2)C3)cc1=O [Example 12035]	10 to 100 nM
CN1Cc2cc(OCC34COC(CNc5cccc6c(N)nccc56)(C3)C4)ccc2C1=O [Example 6621]	100 to 300 nM
Nc1nccc2c(NCC34CC(COc5ccc6nccn6c5)(C3)C4)cccc12 [Example 1017]	100 to 300 nM
Cn1ccc(OCC23CC(CNc4cccc5c(N)nccc45)(CN2C(=O)OCc2cccnc2)C3)cc1=O [Example 13009]	10 to 100 nM
Nc1nccc2c(NCC34CC(Cn5ccccc5=O)(CCO3)C4)cccc12 [Example 10915]	10000 to 40000 nM
Nc1nccc2c(NCC34CCCC(COc5ccc6nccn6c5)(C3)C4)cccc12 [Example 10942]	100 to 300 nM
c1cc2cc(NCC34CC(COc5ccn6ccnc6c5)(C3)C4)ccc2cn1 [Example 1011]	10000 to 40000 nM
Nc1nccc2c(NCC34CC(COC5CCn6ccnc6C5)(C3)C4)cccc12 (single isomer, unassigned) [Example 1002.2]	300 to 1000 nM
Nc1nccc2c(NCC34CC(COc5ccc6c(c5)CNC6=O)(C3)C4)cccc12 [Example 1133]	100 to 300 nM
Nc1ncc(Cl)c2cc(NCC34CC(COc5ccn6ccnc6c5)(CCO3)C4)ccc12 [Example 10922]	300 to 1000 nM

* * *

Biological target: Human Factor XIIa (Homo sapiens)
Construct: Proteolytic cleavage of FXII to heavy and light chains of FXIIa dramatically increases catalytic activity; purchased Enzyme Research Laboratories
Assay: Determination of FXIIa inhibition (fluorogenic substrate H-DPro-Phe-Arg-AFC, IC50 assay)
Format: biochemical
Details: substrate at Km concentration, 25° C.; category scale; read-out: Human FXII IC50 (nm)
Protocol: In vitro inhibition of Factor XIIa was determined using an IC50 assay based on standard literature methods (see e.g Baeriswyl et al., ACS Chem. Biol., 2015, 10 (8) 1861; Bouckaert et al., European Journal of Medicinal Chemistry 110 (2016) 181). […] Protease activity was measured by monitoring the accumulation of liberated fluorescence from the substrate over 5 min at 25° C. The linear rate of fluorescence increase per minute was expressed as percentage (%) activity. […]
pIC50: −log10 of the molar value.
ATTRIBUTE MEASURED: pIC50

COMPOUND	RESULT
Cc1cccc(OCC23CCOC(CNc4cccc5c(N)nccc45)(C2)C3)n1	5.00 to 5.52
Nc1nccc2c(NCC34CC(COc5ccccn5)(CCO3)C4)cccc12	5.00 to 5.52
Cc1cn2ccc(OCC34CC(CNc5cccc6c(N)nccc56)(C3)C4)cc2n1	6.52 to 7.00
COc1ccncc1OCC12CCOC(CNc3cccc4c(N)nccc34)(C1)C2	5.00 to 5.52
Cn1ccc(OCC23CC(CNc4cccc5c(N)nccc45)(CN2S(=O)(=O)CCc2ccccc2)C3)cc1=O	6.52 to 7.00
CN1Cc2ccc(OCC34CN(C(=O)OCc5ccccc5)C(CNc5cccc6c(N)nccc56)(C3)C4)cc2C1=O	6.52 to 7.00
Cn1cc(OCC23CCOC(CNc4cccc5c(N)nccc45)(C2)C3)ccc1=O	5.52 to 6.00
Cn1ccc(OCC23CC(CNc4cccc5c(N)nccc45)(CN2C(=O)Cc2ccccc2)C3)cc1=O	6.00 to 6.52
COc1ccc(NC(=O)N2CC3(COc4ccn(C)c(=O)c4)CC2(CNc2cccc4c(N)nccc24)C3)cc1	8.00 to 9.00
Clc1cc2c(NCC34CC(COc5ccc6nccn6c5)(CO3)C4)ccnc2[nH]1	5.52 to 6.00
Nc1nccc2c(N3CC4(CCC4OCc4ccn5ccnc5c4)C3)cccc12 (single isomer, unassigned) [Example 9002]	4.40 to 5.00
Nc1nccc2c(NCC34COC(COc5ccn6ncnc6c5)(C3)C4)cccc12	5.52 to 6.00
Nc1nccc2c(NCC34COC(COc5ccc6nnc(C(F)F)n6n5)(C3)C4)cccc12	6.00 to 6.52
Nc1nccc2c(OCC34CC(CNc5ccc6nccn6c5)(CO3)C4)cccc12	6.00 to 6.52
Nc1nccc2c(N3CCC4(CC(OCc5ccn6ccnc6c5)C4)C3)cccc12 (stereo not shown) [Example 8803]	5.52 to 6.00
Cn1ccc(OCC23CN(C(=O)OC(C)(C)C)C(CNc4ccc5cnccc5c4)(C2)C3)cc1=O	4.40 to 5.00
Cn1ccc(OCC23CN(c4nc5ccccc5o4)C(CNc4cccc5c(N)nccc45)(C2)C3)cc1=O	8.00 to 9.00
Nc1nccc2c(NCC34CC(COc5ccc6nnc(C(F)F)n6n5)(CCO3)C4)cccc12	6.52 to 7.00
Cn1ccc(OCC23CC(CNc4cccc5c(N)nccc45)(CN2C(=O)CCc2ccccc2Cl)C3)cc1=O	6.00 to 6.52
Cn1ccc(OCC23CN(C(=O)OCc4ccccc4)C(CNc4ccnc5[nH]c(Cl)cc45)(C2)C3)cc1=O	5.52 to 6.00
Nc1nccc2c(NCC34CC(COc5ccc6nccn6c5)(CO3)C4)cccc12	7.00 to 8.00
Cn1ccc(OCC23CC(CNc4cccc5c(N)nccc45)(CN2C(=O)Nc2ccccc2)C3)cc1=O	6.00 to 6.52
Cn1cc(COC(=O)N2CC3(COc4ccn(C)c(=O)c4)CC2(CNc2cccc4c(N)nccc24)C3)cn1	6.52 to 7.00
COc1ccc(C(=O)N2CC3(COc4ccn(C)c(=O)c4)CC2(CNc2cccc4c(N)nccc24)C3)cc1	7.00 to 8.00
Clc1cc2c(NCC34CC(COc5ccn6ccnc6c5)(C3)C4)ccnc2[nH]1	6.00 to 6.52
Cn1nncc1OCC12CCOC(CNc3cccc4c(N)nccc34)(C1)C2	5.00 to 5.52
Cn1ccc(OCC23CN(C(=O)OC(C)(C)C)C(CNc4cccc5c(N)nccc45)(C2)C3)cc1=O	6.52 to 7.00
Nc1nccc2c(NCC34CC(COc5ccc6ncc(F)n6c5)(CO3)C4)cccc12	6.00 to 6.52
Cn1ccc(OCC23CN(C(=O)Nc4ccccc4)C(CNc4cccc5c(N)nccc45)(C2)C3)cc1=O	8.00 to 9.00
Cc1c(OCC23CCOC(CNc4cccc5c(N)nccc45)(C2)C3)ccn2ccnc12	6.52 to 7.00
Cc1cc(OCC23CN(C(=O)Cc4ccccc4)C(CNc4cccc5c(N)nccc45)(C2)C3)cc(=O)n1C	7.00 to 8.00

All values here come from patent US20240327412A1.
